Consider the following compounds; for each one, report its melting point.

Which melting point is listed for O=C(O)CN1CCCCC1 ? 185 to 187 °C

Which melting point is listed for CC(=O)N[C@H](CF)CCC(=O)O ? 80 to 83 °C

Which melting point is listed for O=C(Nc1cccc(Br)c1)N(Cc1ccccc1)Cc1ccccc1 ? 102 to 103 °C

Which melting point is listed for Nc1ccc(CC(=O)N2CCCC2)cc1N ? 105 to 108 °C

Which melting point is listed for CC1(C(=O)N2C[C@@H](O)C[C@H]2C(=O)NC2(C#N)CC2)CC1 ? 160 °C

Which melting point is listed for CCOC(=O)c1c(Cl)c2ccc(C)nc2n(C)c1=O ? 108 to 111 °C

Which melting point is listed for CC(SC(=O)c1ccccc1)C(=O)c1ccccc1NCC(=O)O (stereo unspecified) ? 149 to 151 °C

Which melting point is listed for COC(=O)c1nc2cc(OC)c(OC)cc2n(C)c1=O ? 222 °C

Which melting point is listed for COc1ccc(S(=O)(=O)Nc2c(Nc3ccccc3)ncnc2OC)cc1 ? 159 to 160 °C

Which melting point is listed for COc1cc(NC(=O)OC(C)(C)C)ccc1OCCCN1CCN(c2ccccc2)CC1 ? 125 to 126 °C

Which melting point is listed for CCOC(=O)C(Cc1ccc(OCCBr)cc1)OCC (stereo unspecified) ? 110 to 114 °C

----------
Consider the following molecules; for each one, report its melting point.

Which melting point is listed for COc1cc2nc(-c3ccccn3)nc(N)c2cc1OC ? 248 to 251 °C

Which melting point is listed for CS(=O)(=O)OCC1(COc2ccc(Br)cc2)COC1 ? 89 to 91 °C

Which melting point is listed for COC(=O)Nc1ccc(C(=O)OC)cc1 ? 177 to 178 °C

Which melting point is listed for CCCCOC(=O)N[C@@H](CC(N)=O)C(=O)N[C@@H](Cc1ccccc1)[C@H](O)C(=O)N1CCC[C@H]1C(=O)NC(C)(C)C ? 61 to 65 °C

Which melting point is listed for COc1ccc(NC(=NC#N)N2CCn3c(c(C(N)=O)c(Cl)c3-c3ccccc3)C2)cc1 ? 170 °C

Which melting point is listed for O=C(O)CCC1CCC(=O)N1 (stereo unspecified) ? 125 to 127 °C

Which melting point is listed for CCOC1(OCC)OC(C)=C(C(=O)OC)[C@@H](NC(C)=O)[C@@H]1C (relative stereo) ? 87 to 88 °C

Which melting point is listed for CN1CCN(C2=Cc3ccccc3Sc3cc(Cl)c(Cl)cc32)CC1 ? 157 to 159 °C

Which melting point is listed for FC(F)(F)c1n[nH]c2ccccc12 ? 104 °C

Which melting point is listed for CCCCCCCCCCCCCCCCC[C@@H](C[C@@H]1OC(=O)[C@H]1CCCCCC)OC(=O)[C@H](CC(C)C)NC=O ? 64 to 65 °C

Which melting point is listed for Cc1nc2c(N)nc3ccccc3c2n1CCCNC(=O)C1CCCCC1 ? 234 to 235 °C

Which melting point is listed for CC(C)C(C(=O)NC1CCCCC1)N1CC(=O)NCC(=O)NCC(=O)NCC(=O)NCC(=O)NCC1=O (stereo unspecified) ? 275 °C

Which melting point is listed for COc1ccc(-c2cc3ccccc3[nH]2)cc1NC(=S)NCCNC(=O)OC(C)(C)C ? 159 to 160 °C

Which melting point is listed for Ic1ccc(-c2ccc(I)s2)s1 ? 164 °C

Which melting point is listed for Cc1[nH]cnc1/C=C1\CCCc2c(c3ccccc3n2C)C1=O ? 230 to 232 °C

Which melting point is listed for CCc1nc(/C=C/c2cn(-c3ccccc3)nc2OCc2ccc(OCc3nc(-c4ccc(CC(=O)O)cc4)oc3C)c(OC)c2)cs1 ? 123 to 124 °C

Which melting point is listed for Cc1ccc(S(=O)(=O)N2Cc3csc(C)c3C2)cc1 ? 158 to 160 °C

Which melting point is listed for COc1cccc(C2C(=O)CCc3ccccc32)c1 (stereo unspecified) ? 161 to 162 °C

Which melting point is listed for C1=CC(c2ccccc2)(c2ccc(N3CCOCC3)cc2)Oc2cc(N3CCOCC3)c3ccccc3c21 (stereo unspecified) ? 187 to 188 °C

Which melting point is listed for CN1CCN(C)c2c(N)cccc2C1=O ? 165 to 166 °C

Which melting point is listed for CCSCC(=O)c1cc(C(C)(C)C)c(O)c(C(C)(C)C)c1 ? 133 to 134 °C

----------
Consider the following compounds; for each one, report its melting point.

Which melting point is listed for O=C(O)C=CC(=O)Oc1ccc(Nc2ccccc2)cc1 ? 139 to 142 °C

Which melting point is listed for CN(C)C(=O)Cc1cc(Br)ccc1I ? 127 to 129 °C

Which melting point is listed for CCCCCCCCCCCCCCCCCCSC(C)(C)C(=O)CC(=O)Nc1ccccc1OC ? 59 to 61 °C

Which melting point is listed for CCCCCCCCOc1ccc(-c2ccc(C(C)O)cc2)cc1 (single isomer, unassigned; (-)) ? 124 °C

Which melting point is listed for COc1cc(OC)c(C(=O)O)c(C(F)(F)F)n1 ? 194 to 198 °C

Which melting point is listed for Cc1ccc(N2CCC(N)=N2)cc1 ? 142 to 143 °C

Which melting point is listed for CC(C)(C)N(N=O)C1CCCCC1 ? 87 °C

Which melting point is listed for CCCCOc1cc(/C=C(\OCC)C(=O)O)ccc1OCCc1ccc(OCC)c(F)c1 ? 119 °C

Which melting point is listed for Nc1nc2c(sc(=O)n2C/C=C\CCl)c(=O)[nH]1 ? 200 to 202 °C

Which melting point is listed for CS(=O)(=O)CC(N)C1(c2ccc(Cl)cc2)CCC1 (stereo unspecified) ? 134 to 135 °C

Which melting point is listed for O=C(Nc1cccnc1)N1CCN(c2cc(-c3cccc(F)c3)ncn2)CC1 ? 205 to 206 °C

----------
Consider the following compounds; for each one, report its melting point.
Residues, ends and D or L forms follow the SMILES beside them. *: point of attachment. Bz = O=C(c1ccccc1)*

Which melting point is listed for COc1ccc(C2Cc3cc(C(F)(F)F)ccc3NC(=O)C2CO)cc1 (stereo unspecified) ? 190 °C

Which melting point is listed for CCOC(=O)c1nn(-c2ccc(OC(F)(F)F)cc2)c2cccc(F)c2c1=O ? 178 °C

Which melting point is listed for CCCc1c(OCCCOc2ccc3c(c2CCC)OC(C(=O)O)(C2CC2C(=O)O)CC3)ccc(C(C)=O)c1O (stereo unspecified) ? 138 to 140 °C

Which melting point is listed for CCCCc1nc2c(N)nc3ccccc3c2n1CCCCS(=O)(=O)c1ccccc1 ? 179 to 180 °C

Which melting point is listed for COC1(NC(=O)OCc2ccccc2)CNC1=O (stereo unspecified) ? 112 to 114 °C

Which melting point is listed for NC(=S)c1c(F)cccc1Cl ? 153 to 157 °C

Which melting point is listed for CCNC(=O)[C@@H]1CCCN1C(=O)[C@H](C)NC(=O)c1ccccc1 (Bz-Ala-Pro-NHEt) ? 200 to 202 °C

Which melting point is listed for Cc1ccc(C=CC(C)N(O)C(N)=O)o1 (stereo unspecified) ? 122 to 124 °C

Which melting point is listed for CN1C(=O)C(NS(=O)(=O)CC23CCC(CC2=O)C3(C)C)N=C(c2ccccc2)c2ccccc21 (stereo unspecified) ? 204 to 206 °C

Which melting point is listed for COC(=O)CCC(=O)c1ccc(-c2cccc(F)c2)cc1 ? 99 to 101 °C

Which melting point is listed for O=C(CC(=O)c1ccc(O)cc1O)c1ccc(OCc2ccccc2)c(OCc2ccccc2)c1 ? 245 to 247 °C

Which melting point is listed for COc1cc(Cl)cc(Cl)c1C(=O)NC(C)(C)CO ? 131 to 132 °C

Which melting point is listed for CC(=O)CSc1nc2ccccc2n1C ? 87 to 88 °C

Which melting point is listed for Nc1ccccc1SCc1noc(CSc2ccccc2N)n1 ? 68 °C

Which melting point is listed for Cc1nnc(-c2cccc(I)c2)o1 ? 104 to 105 °C

Which melting point is listed for CCCc1c(OCCCCc2nc3ccc(C(=O)O)cc3[nH]2)ccc(C(C)=O)c1O ? 98 to 100 °C

Which melting point is listed for COc1ccc(-c2cccc(Cn3cncn3)c2)cc1Cl ? 78.2 to 78.4 °C

Which melting point is listed for CN(C)CCOc1ccc2c(=O)c3ccc(OCCN(C)C)cc3oc2c1 ? 87.5 to 89 °C

Which melting point is listed for O=C(N[C@H](Cc1cccc(OC(F)(F)C(F)F)c1)[C@@H](O)c1ccc(F)nc1)c1ccc(F)c2ccccc12 (racemic) ? 148 to 149 °C

Which melting point is listed for O=C(c1ccc(Oc2ccccc2)cc1)c1ccc(C(=O)c2ccc(Oc3ccccc3)cc2)cc1 ? 212 to 214 °C

Which melting point is listed for Clc1ccc(CC(Cn2cncn2)Cn2cncn2)cc1 ? 107 to 108 °C
